Listed here are compounds together with their documented half-life.
experiment: Half-life in human liver microsomes was determined; type: ADME, Microsome

line-notation: CONC(=N)c1ccc(-c2ccc(-c3ccc(C(=N)NOC)cc3)o2)cc1
half-life: 4.16 min

line-notation: CCONC(=N)c1ccc(-c2ccc(-c3ccc(C(=N)NOCC)cc3)o2)cc1
half-life: 32 min

line-notation: CCCONC(=N)c1ccc(-c2ccc(-c3ccc(C(=N)NOCCC)cc3)o2)cc1
half-life: 60 min

----------
Listed here are molecules together with their documented Survival days.
test system: Mus musculus; test: In vivo effect on average days of survival was measured upon oral dose at 400 mg/kg in STIB900 mouse model; type: functional

molecule: CCONC(=N)c1ccc(-c2ccc(-c3ccc(C(=N)NOCC)cc3)o2)cc1
sign: >
Survival days: 60

molecule: CCCCONC(=N)c1ccc(-c2ccc(-c3ccc(C(=N)NOCCCC)cc3)o2)cc1
sign: =
Survival days: 9

molecule: CCCCCCONC(=N)c1ccc(-c2ccc(-c3ccc(C(=N)NOCCCCCC)cc3)o2)cc1
sign: =
Survival days: 6

molecule: CC(C)ONC(=N)c1ccc(-c2ccc(-c3ccc(C(=N)NOC(C)C)cc3)o2)cc1
sign: =
Survival days: 48

molecule: CONC(=N)c1ccc(-c2ccc(-c3ccc(C(=N)NOC)cc3)o2)cc1 [PAFURAMIDINE]
sign: >
Survival days: 60

molecule: N=C(NO)c1ccc(-c2ccc(-c3ccc(/C(N)=N\O)cc3)o2)cc1
sign: =
Survival days: 50

molecule: CCCONC(=N)c1ccc(-c2ccc(-c3ccc(C(=N)NOCCC)cc3)o2)cc1
sign: >
Survival days: 47.5
